The measured values listed here are drawn from paper PMC11839852.

Test system: non-tumor-bearing immunocompetent FVB mice
EXPERIMENTAL PROTOCOL: Biodistribution of lanthanide chloride salts LnCl3 (multiplexed ICP-MS)
Type: in vivo
EXPERIMENTAL PARAMETERS: 24 h p.i., non-tumor-bearing mice
REPORTED ENDPOINT: Tissue uptake: Salivary glands (% ID/g)

Query block: Please report the recorded Tissue uptake: Salivary glands for [Cl][Lu]([Cl])[Cl] [[^175Lu]LuCl3] .
Result block: 0.55

I = [Cl][Gd]([Cl])[Cl] [[^157Gd]GdCl3]
II = [Cl-].[Cl-].[Cl-].[Eu+3] [[^153Eu]EuCl3]
Query block: // pick min by Tissue uptake: Salivary glands: I , II When you have decided, please share the label of that item.
Result block: II
(II: 0.53 % ID/g, I: 0.77 % ID/g)

====

Test system: non-tumor-bearing immunocompetent FVB mice
EXPERIMENTAL PROTOCOL: Biodistribution of lanthanide chloride salts LnCl3 (multiplexed ICP-MS)
Format: in vivo
EXPERIMENTAL PARAMETERS: 24 h p.i., non-tumor-bearing mice
REPORTED ENDPOINT: Tissue uptake: Heart (% ID/g)

// below: answered compounds
Query block: What value of Tissue uptake: Heart on non-tumor-bearing immunocompetent FVB mice does [Cl-].[Cl-].[Cl-].[Eu+3] [[^153Eu]EuCl3] have?
Result block: 1.0

Query block: Item: [Cl][Lu]([Cl])[Cl] [[^175Lu]LuCl3] Test system: non-tumor-bearing immunocompetent FVB mice Read-out: Tissue uptake: Heart Value: ?
Result block: 0.54

P = [Cl][Tb]([Cl])[Cl] [[^159Tb]TbCl3]
Q = [Cl][Gd]([Cl])[Cl] [[^157Gd]GdCl3]
Query block: Tissue uptake: Heart comparison. Which is larger, P or Q ? Could you answer with the label of the item you picked?
Result block: Q
(Q: 1.2 % ID/g, P: 0.76 % ID/g)

====

EXPERIMENTAL PROTOCOL: Biodistribution of Ln-DOTATATE and Ln-DOTA-LM3 (multiplexed ICP-MS)
EXPERIMENTAL PARAMETERS: female, CD1 nude, mouse, intestines, intravenous, 0.5 nmol, Tissue uptake: Intestines, 24 h p.i., AR42J tumor-bearing mice
Where a SMILES comes first, the peptide text is derived from it. Bridges are numbered along the chain shown (N, C = ends). [ ]: non-standard residue; d: D form. The star is where a group is joined. DOTA = O=C(O)CN1CCN(CC(=O)O)CCN(CC(=O)*)CCN(CC(=O)O)CC1; dPhe(4-NHCONH2) = NC(=O)Nc1ccc(C[C@@H](N)C(=O)O)cc1; Phe(4-Cl) = N[C@@H](Cc1ccc(Cl)cc1)C(=O)O
REPORTED ENDPOINT: tissue uptake at 24 h

Query block: Entry under review: C[C@@H](O)[C@@H]1NC(=O)[C@H](CCCCN)NC(=O)[C@@H](Cc2ccc(NC(N)=O)cc2)NC(=O)[C@H](Cc2ccc(O)cc2)NC(=O)[C@H](NC(=O)[C@H](Cc2ccc(Cl)cc2)NC(=O)CN2CCN(CC(=O)O)CCN(CC(=O)O)CCN(CC(=O)O)CC2)CSSC[C@@H](C(=O)N[C@H](Cc2ccc(O)cc2)C(N)=O)NC1=O [[^175Lu]Lu-DOTA-LM3] ({DOTA}-[Phe(4-Cl)][dC]Y[dPhe(4-NHCONH2)]KTC[dY]-NH2; disulfide 2-7 (inferred); C-terminus assumed) . Reported tissue uptake at 24 h?
Result block: < 0.5 %ID/g
